Recorded IC50 values for a group of compounds are listed next.
System: prostate cancer cell line (LNCap)
protocol-description: Cell growth inhibition assay (Celltiter Glo)
Type: cell-based
condition-parameters: Homo sapiens, LNCap cells, 120 hours incubation

compound | target-desc | relation | IC50 [µM]
O=[N+]([O-])c1ccc(CCNc2nc(F)nc3[nH]cnc23)cc1 [Example 50] | prostate cancer cell line (LNCap) | = | 23.1
NC(=O)c1ccc2nc(Cl)cc(NCCc3ccc([N+](=O)[O-])cc3)c2c1 [Example 41] | prostate cancer cell line (LNCap) | > | 50
Nc1ccc(CCNc2cc(Cl)nc3ccccc23)cc1 [Example 6] | prostate cancer cell line (LNCap) | = | 0.69
O=[N+]([O-])c1ccc(CCNc2cc(Cl)nc3ccc(-c4ccc(Cl)cc4Cl)cc23)cc1 [Example 55] | prostate cancer cell line (LNCap) | > | 50
O=[N+]([O-])c1ccc(CCNc2nc(Cl)nc3ccccc23)cc1 [Example 18] | prostate cancer cell line (LNCap) | = | 0.48

###

System: prostate cancer cell line (LNCap)
protocol-description: Cell growth inhibition assay (Celltiter Glo)
Type: cell-based
condition-parameters: Homo sapiens, LNCap cells, 120 hours incubation
measure: IC50 (µM)

smiles-input | relation | data-value
COc1cccc2c(NCCc3ccc([N+](=O)[O-])cc3)cc(Cl)nc12 | = | 2.6
CS(=O)(=O)Nc1ccc(CCNc2ncnc3[nH]ccc23)cc1 | = | 10.8
O=[N+]([O-])c1ccc(CCNc2cc(Cl)nc3cccc(OC(F)(F)F)c23)cc1 | = | 2.5
O=[N+]([O-])c1ccc(CCNc2cc(Cl)nc3ccc(Oc4ccccc4)cc23)cc1 | > | 50
COc1ccc2nc(Cl)cc(NCCc3ccc(NS(C)(=O)=O)cc3)c2c1 | = | 2.6
CS(=O)(=O)Nc1ccc(CCNc2nccc3ccccc23)cc1 | = | 6

###

target-desc: STAT3 (Homo sapiens, UniProt P40763)
Construct: endogenous in cells; host or cells: LNCaP (human prostate cancer) stably carrying pSTAT3-TA-luc reporter plasmid
Sequence (P40763 whole entry): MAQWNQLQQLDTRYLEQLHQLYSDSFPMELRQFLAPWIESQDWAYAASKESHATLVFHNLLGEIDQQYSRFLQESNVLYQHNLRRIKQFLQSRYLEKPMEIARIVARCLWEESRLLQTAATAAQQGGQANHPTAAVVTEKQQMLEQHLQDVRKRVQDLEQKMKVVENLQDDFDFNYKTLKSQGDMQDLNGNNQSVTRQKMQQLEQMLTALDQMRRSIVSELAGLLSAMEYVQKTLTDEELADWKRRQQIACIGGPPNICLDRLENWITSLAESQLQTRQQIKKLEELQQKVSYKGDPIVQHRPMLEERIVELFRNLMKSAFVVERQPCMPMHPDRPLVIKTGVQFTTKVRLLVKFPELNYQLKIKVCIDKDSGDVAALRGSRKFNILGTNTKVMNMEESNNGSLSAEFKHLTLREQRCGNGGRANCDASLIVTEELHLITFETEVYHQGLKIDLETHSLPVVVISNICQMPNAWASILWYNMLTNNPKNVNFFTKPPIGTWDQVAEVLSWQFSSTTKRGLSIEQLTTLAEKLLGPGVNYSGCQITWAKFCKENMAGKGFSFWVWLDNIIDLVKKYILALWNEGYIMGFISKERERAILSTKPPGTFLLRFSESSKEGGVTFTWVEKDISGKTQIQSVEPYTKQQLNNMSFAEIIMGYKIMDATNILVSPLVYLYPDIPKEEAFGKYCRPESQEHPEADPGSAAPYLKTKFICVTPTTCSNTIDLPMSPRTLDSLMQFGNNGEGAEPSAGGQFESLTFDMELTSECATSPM
protocol-description: STAT3 activation inhibition assay (reporter gene assay, LNcaP stable cell line, IL-6 stimulated)
Type: cell-based
condition-parameters: LNcaP stable cell line [plasmid STAT3-TA-luc], IL-6 10 ng/mL, 48 hours, luciferase activity; read-out: IC50 (μM) pSTAT3
Recorded IC50 values for a group of compounds are listed next.

smiles-input | IC50
CS(=O)(=O)Nc1ccc(CCNc2cc(Cl)nc3ccc(-c4ccc(Cl)cc4Cl)cc23)cc1 | 17.9 µM
O=[N+]([O-])c1ccc(CCNc2ncnc3ccc(-c4ccc(Cl)cc4Cl)cc23)cc1 | 11 µM
CS(=O)(=O)Nc1ccc(CCNc2cc(Cl)nc3cccc(OC(F)(F)F)c23)cc1 | 0.15 µM
O=[N+]([O-])c1ccc(CCNc2cc(Cl)nc3cc(OC(F)(F)F)ccc23)cc1 | 5.8 µM
CS(=O)(=O)Nc1ccc(CCNc2nccc3ccccc23)cc1 | 4.3 µM
O=[N+]([O-])c1ccc(CCNc2cc(Cl)nc3ccc(Oc4ccccc4)cc23)cc1 | 6 µM
O=[N+]([O-])c1ccc(CCNc2nc(Cl)nc3[nH]cnc23)cc1 | > 50 µM
COc1cc(NCCc2ccc(NS(C)(=O)=O)cc2)c2ccccc2n1 | 1.2 µM
CCOC(=O)c1ccc2nc(Cl)cc(NCCc3ccc([N+](=O)[O-])cc3)c2c1 | > 50 µM
CCc1cccc2c(NCCc3ccc([N+](=O)[O-])cc3)cc(Cl)nc12 | 7.8 µM
CS(=O)(=O)Nc1ccc(CCNc2ncnc3ccccc23)cc1 | 0.17 µM
O=[N+]([O-])c1ccc(CCNc2cc(Cl)nc3ccc(O)cc23)cc1 | 2.3 µM
O=[N+]([O-])c1ccc(CCNc2cc(Cl)nc3ccccc23)cc1 | 2.6 µM
